Molecular target: Polyunsaturated fatty acid 5-lipoxygenase (Homo sapiens)
Assay: Inhibitory concentration against 5-lipoxygenase in human whole blood
Format: functional, tissue-based
PARAMETER MEASURED: IC50 (nM)

Example cases with answers are listed next.
> print(dat)
                                  structure  parameter.measured  numeric.readout
1  O=C(OCc1ccccc1)N(O)CCC#Cc1ccc(OCCCCN2CCN(C(c3ccc(F)cc3)c3ccc(F)cc3)CC2)cc1                IC50              150
2  COC(=O)N(O)CCC#Cc1ccc(OCCCCN2CCN(C(c3ccc(F)cc3)c3ccc(F)cc3)CC2)cc1                IC50               90
3  CCOC(=O)N(O)CCC#Cc1ccc(OCCCCN2CCN(C(c3ccc(F)cc3)c3ccc(F)cc3)CC2)cc1                IC50               72

[I] CC(C)OC(=O)N(O)CCC#Cc1ccc(OCCCCN2CCN(C(c3ccc(F)cc3)c3ccc(F)cc3)CC2)cc1
[II] CC(C)COC(=O)N(O)CCC#Cc1ccc(OCCCCN2CCN(C(c3ccc(F)cc3)c3ccc(F)cc3)CC2)cc1
Endpoint returns whichever of I and II has the numerically higher IC50. Choose, then provide that item's label.
II
(II: 176 nM, I: 102 nM)

###

Biological target: Polyunsaturated fatty acid 5-lipoxygenase (Homo sapiens, UniProt P09917)
Sequence (P09917 whole entry): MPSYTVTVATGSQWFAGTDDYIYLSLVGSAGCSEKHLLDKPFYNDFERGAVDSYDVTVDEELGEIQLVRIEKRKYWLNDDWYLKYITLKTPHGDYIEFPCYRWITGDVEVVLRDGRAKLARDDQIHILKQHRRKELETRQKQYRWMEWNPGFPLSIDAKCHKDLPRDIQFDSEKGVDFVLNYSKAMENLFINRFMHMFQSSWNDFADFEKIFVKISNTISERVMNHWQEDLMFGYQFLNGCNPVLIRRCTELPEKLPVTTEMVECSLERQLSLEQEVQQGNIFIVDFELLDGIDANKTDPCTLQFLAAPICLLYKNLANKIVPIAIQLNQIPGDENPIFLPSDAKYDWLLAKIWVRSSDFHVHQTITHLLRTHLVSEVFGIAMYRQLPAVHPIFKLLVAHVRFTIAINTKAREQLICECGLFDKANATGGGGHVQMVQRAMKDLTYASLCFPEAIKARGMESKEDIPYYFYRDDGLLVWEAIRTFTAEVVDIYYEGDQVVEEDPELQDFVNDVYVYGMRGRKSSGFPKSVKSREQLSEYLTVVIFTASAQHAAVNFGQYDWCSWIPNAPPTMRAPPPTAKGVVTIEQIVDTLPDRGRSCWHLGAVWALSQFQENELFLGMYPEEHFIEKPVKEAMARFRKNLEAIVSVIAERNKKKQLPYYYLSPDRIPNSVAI
Experiment: Inhibitory concentration against human 5-lipoxygenase
pIC50: −log10 of the molar value.
PARAMETER MEASURED: pIC50

> print(dat)
                                  structure  numeric.readout
1  O=C(OCc1ccccc1)N(O)CCC#Cc1ccc(OCCCCN2CCN(C(c3ccc(F)cc3)c3ccc(F)cc3)CC2)cc1             6.46
2  CCOC(=O)N(O)CCC#Cc1ccc(OCCCCN2CCN(C(c3ccc(F)cc3)c3ccc(F)cc3)CC2)cc1             6.44

[P] NC(=O)N(O)CCC#Cc1ccc(OCCCCN2CCN(C(c3ccc(F)cc3)c3ccc(F)cc3)CC2)cc1
[Q] CC(C)COC(=O)N(O)CCC#Cc1ccc(OCCCCN2CCN(C(c3ccc(F)cc3)c3ccc(F)cc3)CC2)cc1
Lab log: flag the item ( P or Q ) with the smaller pIC50 figure. Choose, then provide that item's label.
Q
(Q: 6.38, P: 6.71)

[I] COC(=O)N(O)CCC#Cc1ccc(OCCCCN2CCN(C(c3ccc(F)cc3)c3ccc(F)cc3)CC2)cc1
[II] CC(C)OC(=O)N(O)CCC#Cc1ccc(OCCCCN2CCN(C(c3ccc(F)cc3)c3ccc(F)cc3)CC2)cc1
Lab log: flag the item ( I or II ) with the smaller pIC50 figure. Choose, then provide that item's label.
II

###

Molecular target: UniProtKB P35367
Sequence (P35367 whole entry): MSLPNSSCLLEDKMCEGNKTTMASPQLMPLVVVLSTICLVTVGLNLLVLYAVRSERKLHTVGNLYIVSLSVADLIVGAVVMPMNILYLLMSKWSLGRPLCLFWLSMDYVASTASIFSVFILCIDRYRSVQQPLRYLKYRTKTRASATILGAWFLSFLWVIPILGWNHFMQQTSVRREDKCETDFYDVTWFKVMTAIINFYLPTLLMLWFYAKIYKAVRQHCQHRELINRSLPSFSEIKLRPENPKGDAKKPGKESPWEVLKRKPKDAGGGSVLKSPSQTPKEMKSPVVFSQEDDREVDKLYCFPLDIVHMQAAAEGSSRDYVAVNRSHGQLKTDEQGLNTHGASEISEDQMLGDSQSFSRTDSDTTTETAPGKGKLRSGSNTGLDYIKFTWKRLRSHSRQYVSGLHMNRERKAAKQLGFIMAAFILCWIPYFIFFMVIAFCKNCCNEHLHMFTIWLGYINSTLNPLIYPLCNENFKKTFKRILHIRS
Test: Binding affinity for human Histamine H1 receptor in CHO K1 cells
PARAMETER MEASURED: Ki (nM)

[1] CC(C)OC(=O)N(O)CCC#Cc1ccc(OCCCCN2CCN(C(c3ccc(F)cc3)c3ccc(F)cc3)CC2)cc1
[2] O=C(OCc1ccccc1)N(O)CCC#Cc1ccc(OCCCCN2CCN(C(c3ccc(F)cc3)c3ccc(F)cc3)CC2)cc1
[3] CCOC(=O)N(O)CCC#Cc1ccc(OCCCCN2CCN(C(c3ccc(F)cc3)c3ccc(F)cc3)CC2)cc1
Put the items in sequence by Ki, from largest down. Please reply with the labels ordered as requested. Many thanks.
2, 1, 3

[A] CC(C)COC(=O)N(O)CCC#Cc1ccc(OCCCCN2CCN(C(c3ccc(F)cc3)c3ccc(F)cc3)CC2)cc1
[B] COC(=O)N(O)CCC#Cc1ccc(OCCCCN2CCN(C(c3ccc(F)cc3)c3ccc(F)cc3)CC2)cc1
Endpoint returns whichever of A and B has the numerically higher Ki. Choose, then provide that item's label.
A
(A: 7.59 nM, B: 5.01 nM)
